observation.type: melting point (°C)

Need melting point of O=C(O)C1=NN(c2ccccc2)C(=O)C1=CC1C(=O)N(c2ccccc2)N=C1C(=O)O (stereo not given) , thanks.
259

Return reported melting point; argument: C1=CCCCCCCCCCC1 [cyclododecene_(trans)]
0

Given the compound CCI [iodoethane] , what is its reported melting point?
-108

(A) COc1ccc(OC)c(S(N)(=O)=O)c1 [2,5-dimethoxybenzenesulfonamide]
(B) Cc1ccccc1N1C(=O)c2cc(S(N)(=O)=O)c(Cl)cc2NC1C (stereo not given)
Between A and B , which one has the lower reported melting point value? Which one? Tell me its label.
A
(A: 147 °C, B: 256 °C)

Sourced from the Bradley open melting point set (2014)
